ASSAY SYSTEM: Metabotropic glutamate receptor 5 (Homo sapiens)
Sequence (P41594 whole entry): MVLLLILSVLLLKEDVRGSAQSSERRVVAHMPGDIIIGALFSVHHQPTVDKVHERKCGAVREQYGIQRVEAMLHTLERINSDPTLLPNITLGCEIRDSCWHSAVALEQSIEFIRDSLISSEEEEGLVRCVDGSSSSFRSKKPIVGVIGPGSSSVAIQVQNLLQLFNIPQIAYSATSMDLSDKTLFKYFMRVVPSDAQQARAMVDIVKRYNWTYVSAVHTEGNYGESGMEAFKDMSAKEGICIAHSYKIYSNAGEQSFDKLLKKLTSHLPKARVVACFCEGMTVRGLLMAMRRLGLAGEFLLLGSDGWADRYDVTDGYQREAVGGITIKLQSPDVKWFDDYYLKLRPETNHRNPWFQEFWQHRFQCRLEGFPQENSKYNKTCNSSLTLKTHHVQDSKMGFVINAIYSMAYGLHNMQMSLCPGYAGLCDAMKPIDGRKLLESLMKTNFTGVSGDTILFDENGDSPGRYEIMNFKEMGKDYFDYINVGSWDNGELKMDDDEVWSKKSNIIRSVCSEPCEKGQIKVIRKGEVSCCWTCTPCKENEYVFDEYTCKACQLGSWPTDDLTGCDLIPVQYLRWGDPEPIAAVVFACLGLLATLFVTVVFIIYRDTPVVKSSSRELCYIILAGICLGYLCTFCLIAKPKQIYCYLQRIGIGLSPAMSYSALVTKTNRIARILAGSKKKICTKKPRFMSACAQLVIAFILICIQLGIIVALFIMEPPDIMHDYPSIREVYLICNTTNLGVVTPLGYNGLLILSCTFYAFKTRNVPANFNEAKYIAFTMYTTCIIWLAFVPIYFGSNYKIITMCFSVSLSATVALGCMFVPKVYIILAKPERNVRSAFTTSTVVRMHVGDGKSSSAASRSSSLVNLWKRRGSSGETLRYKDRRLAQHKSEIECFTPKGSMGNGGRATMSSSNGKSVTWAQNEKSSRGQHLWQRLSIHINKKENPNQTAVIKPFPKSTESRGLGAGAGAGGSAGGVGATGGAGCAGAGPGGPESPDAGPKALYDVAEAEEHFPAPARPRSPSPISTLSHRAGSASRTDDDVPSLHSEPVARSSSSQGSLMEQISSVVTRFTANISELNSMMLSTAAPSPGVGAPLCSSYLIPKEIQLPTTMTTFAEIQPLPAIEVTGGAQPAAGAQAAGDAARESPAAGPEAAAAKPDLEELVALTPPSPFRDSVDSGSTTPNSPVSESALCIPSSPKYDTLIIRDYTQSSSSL
PROCEDURE SUMMARY: Negative allosteric modulatory activity at human cloned mGluR5 receptor expressed in CHO-T-Rex cells assessed as inhibiton of quisqualate-induced calcium mobilization treated 10 mins prior to agonist application by fluorescence analysis
Assay type: functional, cell-based
pIC50: −log10 of the molar value.
Please use True whenever pIC50 is not below 9, and False whenever it is.

Could you tell me if the measured pIC50 of O=[N+]([O-])c1cccnc1N1CCC(=CC#Cc2ccccn2)CC1 reaches 9 or more?
True

Say whether O=[N+]([O-])c1cccnc1N1CCC(=CC#Cc2ccccc2)CC1 shows pIC50 of 9 or more.
False

Confirm if pIC50 reported for the compound Cc1cccc(C#CC=C2CCN(c3ncc(-c4ccccc4)cc3C#N)CC2)n1 is 9 or above.
False

Determine whether measured pIC50 meets or exceeds 9 for O=[N+]([O-])c1cccnc1N1CCC(=CC#Cc2cccc(Cl)c2)CC1
False

# bool: pIC50 of Cc1cccc(C#CC=C2CCN(c3ccccc3[N+](=O)[O-])CC2)n1 >= 9
False

Answer whether pIC50 of Cc1cccc(C#CC=C2CCN(c3ccccc3)CC2)n1 is greater than or equal to 9.
False
